# assay.target: Potassium voltage-gated channel subfamily KQT member 1 (Homo sapiens) (UniProt P51787)
# Sequence (P51787 whole entry, looked up): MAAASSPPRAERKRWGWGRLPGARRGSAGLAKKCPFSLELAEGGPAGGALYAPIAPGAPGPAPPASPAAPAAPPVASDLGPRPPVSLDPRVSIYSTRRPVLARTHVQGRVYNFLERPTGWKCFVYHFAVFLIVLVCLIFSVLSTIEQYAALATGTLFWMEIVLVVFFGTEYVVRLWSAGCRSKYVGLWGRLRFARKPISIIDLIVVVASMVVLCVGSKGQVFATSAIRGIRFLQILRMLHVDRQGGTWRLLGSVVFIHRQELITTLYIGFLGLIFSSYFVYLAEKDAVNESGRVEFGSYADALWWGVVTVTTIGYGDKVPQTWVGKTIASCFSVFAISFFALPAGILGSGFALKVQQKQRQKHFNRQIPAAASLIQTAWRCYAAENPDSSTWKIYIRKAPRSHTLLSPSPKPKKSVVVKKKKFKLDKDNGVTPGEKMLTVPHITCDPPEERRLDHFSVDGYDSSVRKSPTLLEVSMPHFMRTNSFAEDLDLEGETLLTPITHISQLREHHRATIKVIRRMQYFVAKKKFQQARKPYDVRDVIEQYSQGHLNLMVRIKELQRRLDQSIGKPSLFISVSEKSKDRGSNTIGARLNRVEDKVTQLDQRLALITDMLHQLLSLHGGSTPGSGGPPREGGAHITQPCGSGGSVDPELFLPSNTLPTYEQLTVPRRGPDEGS
# run.description: KCNQ1 potassium channel potentiators, confirmation, FluxOR thallium flux, CHO cells, duplicates (AID 493007);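 for potentiation: 0% = buffer-only wells and 100% = R-L3 activator control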
# cond: KCNQ1 cell line, FluxOR thallium flux fluorescence, at 10 µM; stronger effect = higher value, % of reference activator effect, buffer zero
Activity calls are given as the source filed them.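 Rule for the calls: active = potentiation averaged over duplicate wells exceeding buffer-only control mean by more than 3 SD; inactive = the rest.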
endpoint.name: potentiation

Worked examples follow.
compound | reported.measurement
O=C(Nc1nc2c(Br)cc(Br)cc2c(=O)s1)c1ccco1 | inactive
CNc1nc(N)c([N+](=O)[O-])c(Nc2cccc(F)c2)n1 | inactive
Cc1cccc(-n2c(C)cc(/C=N/NC(N)=S)c2C)c1 | inactive
Cc1ccc(S(=O)(=O)NCC(c2ccc3c(c2)OCO3)N2CCOCC2)cc1 (stereo unspecified) | inactive
O=Cc1c(F)cccc1N1CCCC1 | inactive

Give measured potentiation for every item shown.
1. O=C(NCc1ccccc1)/C(=C/c1ccccc1)NC(=O)c1ccco1
2. Cc1ccc(-c2csc(NC(=S)NC(=O)c3ccco3)n2)cc1
3. CCOC(=O)c1sc2ncnc(NCc3ccco3)c2c1C

Result:
["inactive", "71% (active)", "152% (active)"]

Give measured potentiation for every item shown.
1. COc1ccc(-c2csc(NC(=S)NC(=O)c3cccs3)n2)cc1OC
2. CC1C/C(=C/c2ccncc2)C(=O)/C(=C/c2ccncc2)C1 (stereo unspecified)
3. C=CCN(c1ccccc1)S(=O)(=O)c1cccc(C(=O)Nc2cccc(C)n2)c1

Result:
1. 40% (active)
2. inactive
3. 224% (active)

Give measured potentiation for every item shown.
1. O=C(CSc1cccc[n+]1[O-])c1cc(Cl)ccc1Cl
2. COc1ccc(-c2nonc2NC(=O)c2oc3ccccc3c2C)cc1OC
3. CC(C)(C)C1C/C(=C/c2ccccn2)C(=O)/C(=C/c2ccccn2)C1 (stereo unspecified)

Result:
1: inactive; 2: inactive; 3: inactive

Give measured potentiation for every item shown.
1. O=c1c(-c2ccccc2)[n+]([O-])c2ccccc2n1O
2. O=c1ccc(-c2ccc(S(=O)(=O)Nc3ccccc3)o2)n[nH]1

Result:
inactive
inactive

* * *

# run.description: membrane potential modulation in parental HEK293, confirmation, counter-screen for TRPC6 inhibitor project, cell-based (AID 2780)
# cond: parental HEK293 membrane potential dye fluorescence; at 10 µM
Some of the results follow. Activity calls are given as the source filed them.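 How the source made its calls: active means membrane potential signal shifting up or down by more than 3 SD of buffer-only wells, on both duplicate plates; inactive means the rest.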
Mark one answer only. Choices: active, inactive

Worked examples, 3 compounds total:
compound | answer.label
CCCCCCCCCCOC(=O)C[N+](C)(C)CC1CCCCC1O (stereo unspecified) | active
Cn1c(=O)n(C)c2cc(C(=O)Nc3ccc4c(c3)OCO4)ccc21 | active
CCOC(=O)N1CCC(O)(c2cc(C)c(C)cc2C)CC1 | inactive

Problem: What call does the record list for `C[C@H](NC(=O)OC(C)(C)C)c1nnc(SCC(=O)Nc2ccc(Br)cc2)o1` ?
Result: active

Problem: What call does the record list for COc1ccccc1C1SCCN1C(=O)c1ccc([N+](=O)[O-])cc1 (stereo unspecified) ?
Result: inactive

Problem: What call does the record list for `Cn1c(=NC(=O)c2cnccn2)sc2ccccc21` ?
Result: active

* * *

# assay.target: Potassium voltage-gated channel subfamily KQT member 2 (Rattus norvegicus)
# run.description: rat KCNQ2 channel potentiation, selectivity assay for KCNQ1 potentiator project, KCNQ2-CHO-K1 cells (AID 493009);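 note: assay conditions were tuned for KCNQ1 rather than KCNQ2 modulators; signal is max minus min fluorescence divided by baseline after thallium stimulus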
# cond: FluxOR thallium flux fluorescence, at 10 µM, scaled: buffer 0, activator control 100
The source made the active and inactive calls.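 How the source made its calls: active means mean duplicate potentiation above the buffer control mean plus 5 SD of buffer wells; inactive means the rest.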
Mark one answer only. Choices: true (1) (active), false (0) (inactive)

Worked examples, 2 compounds total:
compound | answer.label
O=C1C(C2=C(O)c3ccccc3C2=O)=Nc2ccccc21 | true (1)
O=C(NCC1CCCO1)c1ccc2c(c1)S(=O)(=O)c1ccccc1C2=O (configuration not stated) | false (0)

Problem: What call does the record list for `CC(=O)Nc1ccc(S(=O)(=O)N2CCC(C(=O)O)CC2)cc1` ?
Result: false (0)

Problem: What call does the record list for `Cn1c(SCC(=O)NC2CC2)nnc1-c1cccs1` ?
Result: false (0)

Problem: What call does the record list for CCC(C)NCC(=O)Nc1sc2c(c1C(N)=O)CCC2 (configuration not stated) ?
Result: false (0)

Problem: What call does the record list for `Cc1[nH]c(-c2ccccn2)nc(=S)c1Cl` ?
Result: true (1)

Problem: What call does the record list for `CC(C)(C)c1ccc(OCC(=O)NNC(=S)NC(=O)c2ccco2)c(Br)c1` ?
Result: true (1)

Problem: What call does the record list for `O=C(CNC(=S)NC(=O)c1ccc(Br)o1)c1ccccc1` ?
Result: false (0)

Problem: What call does the record list for `COc1ccc(-c2nn(-c3ccccc3)cc2C(=O)NC(=S)NNC(=O)c2ccncc2)cc1` ?
Result: false (0)
